Reported IC50 values follow for various binders
Study System: T1, human GREM1 (hGREM1-His; SEQ ID NO: 595) (human, UniProt O60565 25-184)
T1 construct: also called biotin-hGREM1-His; recombinant human GREM1 protein
T1 sequence: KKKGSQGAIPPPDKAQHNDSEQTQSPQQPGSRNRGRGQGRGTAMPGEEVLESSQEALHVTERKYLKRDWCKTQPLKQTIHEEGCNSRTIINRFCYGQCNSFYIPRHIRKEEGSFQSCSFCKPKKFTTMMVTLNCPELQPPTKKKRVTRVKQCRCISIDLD
Method Notes: competition ELISA, biotin-hGREM1-His (100 pM) binding to coated hBMP4
Lab book: enter the figure in nM, no units written.

| Binder | IC50 (nM) |
| --- | --- |
| H4H6233P (antibody, human IgG4, V domains shown, H4H prefix = human IgG4 Fc) VH: QVQLVESGGGVVQPGRSLRLSCAASGFTFSSYGMHWVRQAPGKGLEWVAVIWYDGSNYYYAASVKGRFTISRDNSENTLYLQMNRLRAEDTAVYYCAREGTGSTEDYFDYWGQGTLVTVSS VL: EIVLTQSPATLSLSPGERATLSCRASQSVSSFLAWYQQKPGQAPRLLIYDASNRATGIPVRFSGSGSGTDFTLTISSLEPEDFAVYYCQQRSNWPPYTFGQGTKLEIK | 0.69 |

The binder H4H2926N (antibody, human IgG4, V domains shown, H4H prefix = human IgG4 Fc) VH: EVQLVESGGGLVQTGRSLRLSCAASGFTFDDYAMNWVRQAPGKGLEWVSGISWNSGNIGYADSVKGRFTISRDNAKNSLYLQMNSLRAEDTALYYCVKYIGQQLVQDYFDYWGQGTLVTVSS VL: DIQMTQSPSSLSASVGDRVTITCQASQDITNYLNWYQQRPGKAPKLLIYDAFNLERGVPSRFSGSGYGTYFTFTISSLQPEDIAIYYCQQYDNLPLTFGGGTKVEIE showed IC50 equal to 0.052
